# tested.on: Cytochrome P450 2C19 (Homo sapiens) (UniProt P33261)
# Sequence (P33261 whole entry, looked up): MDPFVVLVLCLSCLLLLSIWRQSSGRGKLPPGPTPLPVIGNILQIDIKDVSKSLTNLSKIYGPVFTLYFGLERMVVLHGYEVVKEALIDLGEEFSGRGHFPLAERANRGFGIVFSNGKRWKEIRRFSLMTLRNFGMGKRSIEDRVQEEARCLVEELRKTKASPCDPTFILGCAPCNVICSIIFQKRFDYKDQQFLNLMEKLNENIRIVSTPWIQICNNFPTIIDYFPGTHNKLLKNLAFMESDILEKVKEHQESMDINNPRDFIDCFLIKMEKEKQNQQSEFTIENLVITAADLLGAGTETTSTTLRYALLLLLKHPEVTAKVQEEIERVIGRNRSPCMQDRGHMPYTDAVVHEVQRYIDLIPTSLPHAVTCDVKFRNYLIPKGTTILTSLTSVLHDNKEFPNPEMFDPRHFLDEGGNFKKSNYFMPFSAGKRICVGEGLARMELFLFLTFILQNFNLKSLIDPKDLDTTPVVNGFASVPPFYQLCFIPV
# protocol.description: blockers of cytochrome P450 2C19 activity – biochemical, luminescence, ADME assay, primary screen (AID 778)
# condition.info: CYP2C19 Supersomes, luciferin-H EGE luminescence, 30 min; at 5 µM
The campaign covered roughly 96,000 compounds. About 20,000 (21%) were called active.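 The calls were made as follows: active = CYP2C19 inhibition above a set limit at 5 µM in the primary screen (cut at about 50% in these data); inactive = the rest.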 Not all results are given here.
API: response.call in active, inactive

Request: In this assay, the call recorded for Cc1ccc(-c2n[nH]c(=S)n2/N=C/c2cc3c(cc2[N+](=O)[O-])OCO3)cc1 was what?
Result: inactive

Request: In this assay, the call recorded for CCN(CC(=O)NC1CCS(=O)(=O)C1)c1nc(-c2cccnc2)nc2ccccc12 (stereo unspecified) was what?
Result: inactive

Request: In this assay, the call recorded for N#CC1=C(SCc2ccccc2)NC(=O)C(C#N)C12CCCC2 (stereo unspecified) was what?
Result: active

Request: In this assay, the call recorded for CC(=O)c1ccc2c(c1)c1ccccc1n2CC(C)C was what?
Result: inactive

Request: In this assay, the call recorded for Cc1ccc(C(=O)NNC(=O)c2cc3cc4ccccc4nc3s2)cc1 was what?
Result: inactive

Request: In this assay, the call recorded for Cc1ccc(CNC(=O)C2CCCN(S(C)(=O)=O)C2)cc1 (stereo unspecified) was what?
Result: inactive

Request: In this assay, the call recorded for CCC(C)n1[nH]c(=O)cc1N (stereo unspecified) was what?
Result: inactive

Request: In this assay, the call recorded for COc1cnc(SCc2ccc(Cl)c(Cl)c2)nc1Cl was what?
Result: active

Request: In this assay, the call recorded for O=C(CCc1ccc(S(=O)(=O)N2CCOCC2)cc1)Nc1ccc2ccccc2c1 was what?
Result: active

Request: In this assay, the call recorded for CC1CCCC(C)N1C(=O)CN1CCN(c2nc(-c3ccc(F)cc3)cs2)CC1 (stereo unspecified) was what?
Result: inactive

Request: In this assay, the call recorded for Nn1c(SCC(=O)NC(=O)NC2CCCC2)nnc1-c1ccccc1F was what?
Result: inactive

Request: In this assay, the call recorded for Cc1ccc(N(CC(O)CN2CCCC2)S(=O)(=O)c2ccccc2)cc1 (stereo unspecified) was what?
Result: inactive

Request: In this assay, the call recorded for O=C(Nc1ccc(Cl)cc1)c1ccsn1 was what?
Result: inactive

Request: In this assay, the call recorded for COc1ccc(N=Cc2c(O)[nH]c3ccccc23)cc1OC was what?
Result: inactive

Request: In this assay, the call recorded for CC12CCC(C(=O)N(CCC#N)CCC#N)(CC1=O)C2(C)C (stereo unspecified) was what?
Result: inactive

Request: In this assay, the call recorded for FC(F)(F)c1nnc2ccc(N3CCN(c4ccccc4)CC3)nn12 was what?
Result: inactive

Request: In this assay, the call recorded for Cn1c(SCC(=O)Nc2cccc(O)c2)nnc1-c1ccc(S(=O)(=O)N2CCOCC2)cc1 was what?
Result: inactive

Request: In this assay, the call recorded for COc1cccc(Nc2ncccc2C(=O)O)c1 was what?
Result: inactive

Request: In this assay, the call recorded for COC(C)(C)[C@]12CC(O)(C(C)C)ON1[C@H]1CCCCC1N2O (stereo partly specified) was what?
Result: inactive

Request: In this assay, the call recorded for CC(C)OC(=O)c1cc(NC(=O)C2C3CCC(O3)C2C(=O)O)cc(C(=O)OC(C)C)c1 (stereo unspecified) was what?
Result: active

Request: In this assay, the call recorded for CCS(=O)(=O)Nc1cc(C(=O)OC)ccc1C(=O)OC was what?
Result: inactive

Request: In this assay, the call recorded for CCOC(=O)C1=C(O)CSC1=Nc1cccc(Cl)c1 was what?
Result: inactive

Request: In this assay, the call recorded for Cc1cc2c(c(=O)n1C)C(C(C)C)C(C#N)=C(N)O2 (stereo unspecified) was what?
Result: inactive

Request: In this assay, the call recorded for CCCc1ccc(-c2csc(NC(=O)Cc3cccs3)n2)cc1 was what?
Result: inactive

Request: In this assay, the call recorded for O=C1c2ccccc2C(Nc2ccc3c(c2)OCCO3)N1Cc1ccco1 (stereo unspecified) was what?
Result: active

Request: In this assay, the call recorded for Cc1oc2nc(SCC(=O)Nc3ccc(S(N)(=O)=O)cc3)nc(NC(=O)c3ccccc3)c2c1C was what?
Result: inactive

Request: In this assay, the call recorded for CC(C)CCNc1nc(N2CCCC2)c2c(c1C#N)CCN(C)C2 was what?
Result: inactive

Request: In this assay, the call recorded for CSc1nsc(SC)c1NC(=O)OC1CCCCC1 was what?
Result: inactive

Request: In this assay, the call recorded for c1cc(-n2cnnn2)ccc1NC1=NCCC1 was what?
Result: inactive

Request: In this assay, the call recorded for CCOc1cccc(SCc2noc(C(=O)NC(C)C)c2C(=O)O)c1 was what?
Result: inactive

Request: In this assay, the call recorded for O=C(Nc1ccncc1)c1c(F)cccc1F was what?
Result: active

Request: In this assay, the call recorded for Cc1cccn2c(=O)c(/C=C3\SC(=S)N(CC(C)C)C3=O)c(NCCCOC(C)C)nc12 was what?
Result: inactive

Request: In this assay, the call recorded for Clc1ccc(-c2cc(COc3ccccc3)no2)cc1Cl was what?
Result: inactive

Request: In this assay, the call recorded for CCOc1c(N2CCCCC2)c(=O)c1=O was what?
Result: inactive

Request: In this assay, the call recorded for O=c1nc(N2CCOCC2)nc2n1CCO2 was what?
Result: inactive

Request: In this assay, the call recorded for O=C(NC1CCCCC1)C1c2ccccc2C(=O)N1Cc1ccco1 (stereo unspecified) was what?
Result: inactive

Request: In this assay, the call recorded for Cc1sc(NC(=O)C2C3CCC(O3)C2C(=O)O)c(C(=O)OC(C)C)c1-c1ccc(Cl)cc1 (stereo unspecified) was what?
Result: inactive

Request: In this assay, the call recorded for CCCC(=O)Nc1cccc(-c2cn3ccsc3n2)c1 was what?
Result: inactive

Request: In this assay, the call recorded for C/C(CC(O)(/C=N/O)c1ccccc1)=N\O (stereo unspecified) was what?
Result: inactive

Request: In this assay, the call recorded for CC(C)(C)c1nc(NCC2CCCO2)c2nnn(Cc3ccccc3)c2n1 (stereo unspecified) was what?
Result: inactive

Request: In this assay, the call recorded for CCOC(=O)c1sc(=S)n2c1[nH]c(=O)c1ccc(C(=O)OC)cc12 was what?
Result: inactive

Request: In this assay, the call recorded for CC(C)Nc1ncnc2c1nnn2Cc1ccccc1 was what?
Result: active

Request: In this assay, the call recorded for O=S(=O)(c1cccc(S(=O)(=O)N2CCC(n3nnc4ccccc43)CC2)c1)N1CCCCC1 was what?
Result: active

Request: In this assay, the call recorded for O=C(Nc1cccc(-c2nc3ncccc3o2)c1)c1ccco1 was what?
Result: inactive

Request: In this assay, the call recorded for CN1C(=O)c2ccc(NC(=O)c3c(F)c(F)c(F)c(F)c3F)cc2C1=O was what?
Result: inactive

Request: In this assay, the call recorded for CCC(C)N1C(=O)S/C(=C/c2ccc(Sc3nc4ccccc4[nH]3)o2)C1=O (stereo unspecified) was what?
Result: inactive
